STUDY TARGET: SelH (Homo sapiens, UniProt Q8IZQ5, U44C)
Sequence (Q8IZQ5 with tags, fused parts or gaps U44C): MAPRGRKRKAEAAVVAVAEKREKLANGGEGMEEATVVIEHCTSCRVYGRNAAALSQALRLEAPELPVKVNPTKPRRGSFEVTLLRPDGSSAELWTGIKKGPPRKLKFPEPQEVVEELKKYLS
ASSAY OVERVIEW: Surface plasmon resonance (SPR) detection of affinity between compounds and SelH
Type: binding
CONDITION DESCRIPTION: ranking within the table's compounds
Method: A Cys-deficient Escherichia coli expression system was adopted, which is an effective method to prepare selenoprotein found in recent years. […] Purified SelH was diluted into a 50 μg/mL protein solution by using 10 mM sodium acetate with a pH value of 5.5, the purified SelH was fixed onto a CM5 chip by an amino coupling method by using Biacore 8K (GE Healthcard, Sweden), and an RU value was recorded. […]

- COMPOUND: "CO[C@@H]1[C@@H](O[C@@H]2O[C@H](C)[C@@H](O[C@H]3C[C@@](C)(O)[C@@H](OC(=O)CC(C)C)[C@H](C)O3)[C@H](N(C)C)[C@H]2O)[C@@H](CC=O)C[C@@H](C)[C@@H](O[C@H]2CC[C@H](N(C)C)[C@@H](C)O2)/C=C/C=C/C[C@@H](C)OC(=O)C[C@H]1O [Isovalerylspiramycin I, 4″-isovalerylspiramycin I]"
  binding activity to the SelH (in words): "strongest"
- COMPOUND: "CC(C)=CCOc1c2ccoc2cc2oc(=O)ccc12 [Iso-imperatorin, iso-imperatorin]"
  binding activity to the SelH (in words): "strongest"

meta.source: patent US20240118263A1
